Source listed as the supplement of paper PMC8728848.

MEASURED ON: Neu5Gc(a2-3)Gal(b1-3)GlcNAc
TEST: glycan array binding signal (z-score within array); higher = stronger binding
CONDITION DESCRIPTION: glycan notation: IUPAC condensed, linker removed
Many of the other results were omitted from the sample, so the strongest signals are more common in it than they were.
ASSAY READOUT: glycan array binding signal (z-score)

binder="AT5G01260(PC)(40) (Arabidopsis thaliana), Q9LFB0 (protein) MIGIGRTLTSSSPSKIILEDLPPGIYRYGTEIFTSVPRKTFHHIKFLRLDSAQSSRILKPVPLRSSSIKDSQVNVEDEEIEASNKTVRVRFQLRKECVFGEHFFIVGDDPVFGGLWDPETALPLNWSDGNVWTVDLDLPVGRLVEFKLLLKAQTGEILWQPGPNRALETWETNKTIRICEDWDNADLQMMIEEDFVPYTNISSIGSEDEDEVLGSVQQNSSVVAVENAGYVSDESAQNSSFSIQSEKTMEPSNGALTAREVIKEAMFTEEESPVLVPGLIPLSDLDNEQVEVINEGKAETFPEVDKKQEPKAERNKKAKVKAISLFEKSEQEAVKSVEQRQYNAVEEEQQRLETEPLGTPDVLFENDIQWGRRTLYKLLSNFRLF" test_value=-0.145
